- METHOD_NOTES: yeast display, Sf9 membrane polyspecificity reagent, FACS + sequencing; frameworks hold sequencing errors
MEASURED_METRIC: polyreactivity (PSR sort gate)

INSERT INTO results (chain_sequence, measured_metric, measurement) VALUES
  ('QVQLVESGGGLVQAGGSLRLSCAASGGTFRVYAMGWYRQAPGKERELVAAITGRGGSTYYADSVKGRFTISRDNAKNTVYLQMNSLKPEDTAVYYCAAQAYWDFGSVARRDSWGQGTQVTVSS', 'polyreactivity (PSR sort gate)', 'low polyreactivity'),
  ('QVQLVESGGGLVQAGGSLRLSCAASGFIFRHNAMGWYRPAPGTEREFVAAISISGGSTYYADSVKGRFTISRDNAKNTVYLQMNSLKPEDTAVYYCNARSLGNTYLLYDYWGQGTQVTVSS', 'polyreactivity (PSR sort gate)', 'low polyreactivity'),
  ('QVQLVESGGGLVQAGGSLRLSCAASGFTFRGYAMGWYRQAPGKERELVAVISSGGSTNYADSVKGRFTISRDNAKNTVYLQMNSLKPEDTAVYYCNAGYWFRYYGGDYYLGGLNYYWGQGTQVTVSS', 'polyreactivity (PSR sort gate)', 'low polyreactivity'),
  ('QVQLVESGGGLVQAGGSLRISCAASGFIFASYTMGWYRQAPGKERELVAAISRAGSTYYADSVKGRFTISPDNAKNTVYLQMNSLKPEDTAVYYCNAVSWRTSRYDYWGQGTQVTVSS', 'polyreactivity (PSR sort gate)', 'high polyreactivity'),
  ('QVQLVESGGGLVQAGGSLRLSCAASGRILGRYAMGWYRQEPGKERELVASIRGGGSTNYADSVKGRFTISRDNAKNTVYLQMNSLKPEDTAVYYCAKDYDVRVYEYNYWGQGTQVTVSS', 'polyreactivity (PSR sort gate)', 'low polyreactivity'),
  ('QDQLVESGRGLVQEGGSLRLSCAASGSIFWSNGMGWYRQAPGKERELVATISSSGSDTYYAASVKGRFTISRDTAKNTVYFQMNSLKPEDTAVYYCNVYSIWGTYDYRGQGTQVTVSS', 'polyreactivity (PSR sort gate)', 'low polyreactivity'),
  ('QVQLVESGGGLVQAGGSLRLSCAASGSIFGRNAMGWYRQAPGKDRELVAAINSGGSTNYADSVKGRFTISRYNAKNTVYLQMNSLKPEDTAVYYCAARTYSSGRYYGYVAFYYWGQGTQVTVSS', 'polyreactivity (PSR sort gate)', 'high polyreactivity'),
  ('QVQLVESGGCLVQAGGSLRFSCAASGIIFYGYAMGWYRQAPGKERELVAAISERGGSTYYADSVKGRFTISRDNAKNTVYLQMNSLKPEDTAVYYCAVDYYYLMYWGQGTQVTVSS', 'polyreactivity (PSR sort gate)', 'low polyreactivity'),
  ('QVQLVESGGGLVQAGGSLRLSCAASGFIFRRYAMGWYRQAPGKERELVASISWSGGSTYYADSVKGRFTISRDNAKNTVYLQMNSLKPEDTAVYYCAKGGYYSRYYSYGYWGQGTQVTVSS', 'polyreactivity (PSR sort gate)', 'high polyreactivity'),
  ('QVQLVESGGGLVQAGGSLRLSCAASGLTFWANTMGWYRQAPGKERELVAAITWSGGSTYYADSVKGRFTISRDNAKNTVNLQMNSLKPEDTAVYYCAADEYFAAGYSYYYWGQGSQVTVSS', 'polyreactivity (PSR sort gate)', 'low polyreactivity'),
  ('QVQLVESGGGLDQAGGSLRLSCAASGSIFYTNAMGWYRQAPRKERELVAAITSADSTYYADSVKGRFTISRDNANNTVYLQMNSLKPEDTAFYYCANDVYYYYRWYEYWGQGTQVTVSS', 'polyreactivity (PSR sort gate)', 'high polyreactivity');

###

- METHOD_NOTES: yeast display, Sf9 membrane polyspecificity reagent, FACS + sequencing; frameworks hold sequencing errors
MEASURED_METRIC: polyreactivity (PSR sort gate)

INSERT INTO measurements (chain_sequence, measurement) VALUES
  ('QVQLVESGGGLVQAGGSLRLSCAASGRIFAYYAMGWYRQAPGKERELVAAISSGGTTNYADSVKGRFTISRDNAKITVYLQMNSLIPEDTAVYYCNADGWRRSRQYYYWGQGTQVTVSS', 'low polyreactivity'),
  ('QVKLVESGGGLVQAGGSLRLSCAASGFIFPDYAMGWYRQAPGKERELVAAITSSGGRTYYADSVKGRFTISRDNAKNTVYLQMNSLKPEDTAVYYCAARTISPRGYGSDYWGQGTQVTVSS', 'high polyreactivity'),
  ('QVQLVESGGGLVQAGCSLRLSCAASGRIFVKYTMGWYRQAPGKERELVAAIDFDTDSKYYADSVKGRFTFSRDNAKNTVYFQMNSLNPEDTAVYYCAADSYYYGYQGQTQYGWVWYDYWGQVTQVTVSS', 'low polyreactivity'),
  ('QVQLVESGGGLVQAGGSLPLSCAASGRTFLYNAMGWYRQAPGKERELVAAITKSGGSTYYADSVKGRFTISLDNAKNTVYLQMNTLKPEDTAVYYCAAARRYAYTGGYWGQGTQVTVSS', 'high polyreactivity'),
  ('QVQLVESGGGLVQAGGSLSLSCAASGIIFGSYAMGWYRQAPGKESELVAAITSRGSSTRYADSVKGRFTISRDNAKNTVYLQMNSLKPEDTAVYYCATKVVVAHLPGYYYWGQGTQVTVSS', 'high polyreactivity'),
  ('QVQLVESVGGLVQAGGSLRISCAASGFIFEVYAMGWYRQAPGKERELIAAIRWSGTSTYYAYSVKGRFTISRDNAKNTFYLQMNSLKPEDTAVYYCAADSWDWHIGGEDYWGQGTQVTVSS', 'low polyreactivity'),
  ('QVQLVESGGGLVQAGGSLRLSCAASGRIFDRYAMGWYRPAPGKERELVAASTGSGGRTYYADSVKGRFTISRDNAKNTVYLQMNSLKPEDTAVYYCARAFGQRRYYYWGQGTQVTVSS', 'high polyreactivity'),
  ('QVQLVESGGGLVQAGGSLGLSCAASGFTFDLYAMGWYRQAPGKERALVAAISWSGGSTRYADSVKGRFTISRDYAKNTVYLQMNSLKPEDTAVYYCARQPRLYFKGKLYGYWGQGTQVTVSS', 'high polyreactivity'),
  ('QVQLVESGGGLVQAGGSLRLSCAASGITFTGYAMGWYRQAPGKERELVAAITWSSGSTYYADSVKGRFTISRDNAKNTVYLQMNSLKPEDTAVYYCNAGYWYDGPDYIPEYDYWGQGTQVTVSS', 'low polyreactivity'),
  ('QVQLVESGGGLVQAGGSLRLSCAASGFTFVYYVMGWYRQAPGKERELVAAITYSGGSTYYADSVKGRFTISRDNAKNTVYLHMNSLKPEDTAVYYCAKEVQTYWYHYYYWGQGTQVTVSS', 'high polyreactivity'),
  ('QVQLVESGGGLVQAGGSLRLSCAASGGTLYRYAMGWYRQAPGKERELVAGISSSGGRTYYADSVKGRFTISRDNAKNTVYLQMNSLKPEDTAVYYCAKYWVSSYDYWGQGNQVTVSS', 'high polyreactivity'),
  ('QVQLVESGGGLVQAGGSLRLSCAASGLIFWFYAMGWYRQAPGKERELVAAISGDGDSTYYADSVKGRFTISRDHAKNTVYLQMNSLKPEDTAVYYCAAEWDPVFATDEDDYWGQGTQVTVSS', 'low polyreactivity'),
  ('QVQLVESGGGLVQAGGSLRLSCAASGRTFTKYAMGWYRQAPGKERELVATIRGRGGSTYYADSVKGRFTISRDNAKYTVYLQMNSLKPEDTAVYYCAADYWFSSRKYDYWGQGTQVTVSS', 'high polyreactivity'),
  ('QVQLQESGGGLVQAGGSLRLSCAASGYIFPRIYMGWYRQAPGKEREFDAGISYDAITNYADSVKGRFTISLDNAKNTVYLQMNSLKPEDTAVYYCAVSYYGTPLFTYWGQGTQVTVSS', 'high polyreactivity'),
  ('QVQLVESGGGLVQAGGSLRLSCAASGFIFRGYAMGWYRQAPGKERELVAVISRSGTSTYYADSVKGRFTISRDNAKNTVYLQMNSLKPEDTAVYYCAKEVWPRYIRQAYLSGYESWGQGTQVTVSS', 'high polyreactivity'),
  ('QVQLVESGGGLVQAGGSHRLRCAASGRIFHVYAMGWYRQAPGKERELVAAISSGDRTYYADSVKGRFIISRDNAKNTVYLQMISLKPEDTAVYYCWRYPADESNYWGQGTQVTVSS', 'low polyreactivity'),
  ('QVQLVESGGGLVQAGGSLRLSCAASGRIFRRYAMGWYRQAPWKERELVAAISTSGVRTYYADSVKGRFTISRDNAKNTVYLQMNSLNPEDTAVYYCATVAGPPYDYWGQGTLVTVSS', 'high polyreactivity'),
  ('QVQLVESGGGLDQARGTLSLICAASGSIFRHYAMGWYRQAPWKERELVAAISGSGATTYYADSVKGRFTISRDNAKNTVYLQMKSLKPVDNAVYYCAARTTYITTWVYRHNYTYYYWGQGTQVTVSS', 'high polyreactivity'),
  ('QVQLVESGGGLVQAGGSLRLSCAASGYIFDGNAMGWYRKAPGKERELVAPITWTGGSTYYADSVKGRFTISRDNAKNTVYLQMNSLKPEDTAVYYCAKPYDPGPYHSSYRATDDYWGQGTQVTVSS', 'low polyreactivity'),
  ('QVQLVESGGGLVQAGGSLRLSCAASGFIFGTNTMGWYRQAPGKERELVAAITSVGSTNYADSVKGRFTISRDNAKNTVYLQMNSLKPEDTAVYYCPATLYYQYGGDYWGQGTQVTVSS', 'low polyreactivity'),
  ('QVQLVESGGGLVHAGGSLRLSCAASGFTFSYNARGWYRQAPGKERELVASITRSGGRTYYADSVKGRFTISRDNAKNTVYLQMNSLKPEDTGVYYCAAVWYPWLSSIFDYWGQGTQVTVSS', 'high polyreactivity');
